Molecular target: T1, human prolactin receptor (PRLR) (human, UniProt P16471 25-622)
T1 sequence: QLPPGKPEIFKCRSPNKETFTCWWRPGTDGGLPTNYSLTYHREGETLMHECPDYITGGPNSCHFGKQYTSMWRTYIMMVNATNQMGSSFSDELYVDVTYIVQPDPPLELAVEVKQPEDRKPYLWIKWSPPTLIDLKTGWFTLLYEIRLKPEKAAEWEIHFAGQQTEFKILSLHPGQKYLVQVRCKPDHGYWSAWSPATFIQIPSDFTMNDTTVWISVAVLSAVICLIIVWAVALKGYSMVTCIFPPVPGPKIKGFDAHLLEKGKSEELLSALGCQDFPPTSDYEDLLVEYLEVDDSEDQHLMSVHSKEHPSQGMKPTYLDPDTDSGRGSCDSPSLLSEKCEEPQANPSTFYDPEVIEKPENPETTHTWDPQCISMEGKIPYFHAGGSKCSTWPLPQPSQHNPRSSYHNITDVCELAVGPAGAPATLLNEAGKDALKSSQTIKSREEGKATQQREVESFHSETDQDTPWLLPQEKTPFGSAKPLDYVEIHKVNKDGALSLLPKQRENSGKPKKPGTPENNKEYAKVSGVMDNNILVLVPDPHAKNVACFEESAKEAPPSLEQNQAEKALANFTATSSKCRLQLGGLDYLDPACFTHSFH
Assay: cell-based or functional assay
Listed below: % Kill, T47D cells values for each entry.

- binder: "H1H6782P-DM1 (antibody, human IgG1, V domains shown, DM1 conjugated through SMCC linker; attachment residues not stated) VH: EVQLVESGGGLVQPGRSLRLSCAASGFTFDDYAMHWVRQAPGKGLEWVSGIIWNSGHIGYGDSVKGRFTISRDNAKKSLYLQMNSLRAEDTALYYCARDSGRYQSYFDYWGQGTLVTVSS VL: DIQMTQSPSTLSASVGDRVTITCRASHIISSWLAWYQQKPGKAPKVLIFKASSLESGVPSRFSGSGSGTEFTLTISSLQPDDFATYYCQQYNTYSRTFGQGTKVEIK"
  readoutUnits: "%"
  % Kill, T47D cells: 100
- binder: "H1H6782P-mc-VC-PAB-MMD (antibody, human IgG1, V domains shown, MMD conjugated through mc-VC-PAB linker; attachment residues not stated) VH: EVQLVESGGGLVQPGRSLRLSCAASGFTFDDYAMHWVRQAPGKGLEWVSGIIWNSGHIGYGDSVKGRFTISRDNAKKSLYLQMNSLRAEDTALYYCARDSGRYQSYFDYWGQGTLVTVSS VL: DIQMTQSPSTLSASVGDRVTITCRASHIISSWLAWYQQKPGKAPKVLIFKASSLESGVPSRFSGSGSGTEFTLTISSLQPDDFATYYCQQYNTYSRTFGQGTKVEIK"
  readoutUnits: "%"
  % Kill, T47D cells: 90
- binder: "H1H6953N-mc-VC-PAB-MMAE (antibody, human IgG1, V domains shown, MMAE conjugated through cleavable mc-vc-PAB linker; attachment residues not stated) VH: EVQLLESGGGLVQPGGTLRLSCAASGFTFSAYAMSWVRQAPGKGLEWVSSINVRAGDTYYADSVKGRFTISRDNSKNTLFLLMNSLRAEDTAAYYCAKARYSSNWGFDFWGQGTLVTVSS VL: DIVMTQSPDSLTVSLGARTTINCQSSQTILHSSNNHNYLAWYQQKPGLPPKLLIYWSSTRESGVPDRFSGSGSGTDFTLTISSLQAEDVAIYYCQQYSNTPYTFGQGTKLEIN"
  readoutUnits: "%"
  % Kill, T47D cells: 80
- binder: "H1H6975N-DM1 (antibody, human IgG1, V domains shown, DM1 conjugated through SMCC linker; attachment residues not stated) VH: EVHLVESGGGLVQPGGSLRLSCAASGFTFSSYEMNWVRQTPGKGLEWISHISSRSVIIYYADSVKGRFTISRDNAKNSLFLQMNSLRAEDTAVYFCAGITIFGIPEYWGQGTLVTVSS VL: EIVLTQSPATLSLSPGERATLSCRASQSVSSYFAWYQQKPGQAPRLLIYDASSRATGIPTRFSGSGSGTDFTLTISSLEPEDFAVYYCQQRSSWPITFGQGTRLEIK"
  readoutUnits: "%"
  % Kill, T47D cells: 100
- binder: "H1H6958N2-SPDB-DM4 (antibody, human IgG1, V domains shown, DM4 conjugated through SPDB linker; attachment residues not stated) VH: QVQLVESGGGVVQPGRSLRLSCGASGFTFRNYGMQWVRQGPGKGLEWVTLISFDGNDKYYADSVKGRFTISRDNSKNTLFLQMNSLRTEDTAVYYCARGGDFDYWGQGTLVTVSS VL: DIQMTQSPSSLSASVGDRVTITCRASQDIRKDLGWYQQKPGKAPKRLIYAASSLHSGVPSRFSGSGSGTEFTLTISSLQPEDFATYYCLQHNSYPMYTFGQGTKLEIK"
  readoutUnits: "%"
  % Kill, T47D cells: 100
- binder: "H1H6953N-mc-VC-PAB-MeNHC3-May (antibody, human IgG1, V domains shown, MeNHC3-May conjugated through mc-VC-PAB linker; attachment residues not stated) VH: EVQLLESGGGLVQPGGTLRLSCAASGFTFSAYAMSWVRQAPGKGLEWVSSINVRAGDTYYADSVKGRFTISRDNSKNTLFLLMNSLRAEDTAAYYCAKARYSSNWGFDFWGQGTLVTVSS VL: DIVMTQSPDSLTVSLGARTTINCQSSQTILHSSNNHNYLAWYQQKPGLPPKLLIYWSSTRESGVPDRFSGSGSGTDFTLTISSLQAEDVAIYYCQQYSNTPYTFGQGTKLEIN"
  readoutUnits: "%"
  % Kill, T47D cells: 90
